B1: PLK2 (parent)
chain: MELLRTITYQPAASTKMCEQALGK

Variants of: B1
Assay: protein stability index of a GFP-peptide fusion (GPS, HEK-293T) (PSI 1-6); higher = more stable;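 further: lentivirally expressed fusions sorted by FACS into six bins by GFP to DsRed ratio, PSI derived from sequencing read proportions per bin multiplied by bin number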
Conditions: c terminus: a fixed tail appended
measurementType: protein stability index
In your answer, state the number alone without any accompanying words.

Give recorded protein stability index. T8N 2.68

Give recorded protein stability index. E19G 2.87

Give recorded protein stability index. A12Q 2.03

Give recorded protein stability index. K24T 2.21

Give recorded protein stability index. K24C 2.46

Give recorded protein stability index. Q10K 2.78

Give recorded protein stability index. L4T 3.67

Give recorded protein stability index. L4H 2.6

Give recorded protein stability index. T15N 2.46

Give recorded protein stability index. S14Q 2.5

Give recorded protein stability index. A21S 2

Give recorded protein stability index. R5I 3.09

Give recorded protein stability index. A21H 1.94

Give recorded protein stability index. C18H 2.34

Give recorded protein stability index. E2Y 2.03

Give recorded protein stability index. L3S 2.21

Give recorded protein stability index. E19P 3.73

Give recorded protein stability index. Y9V 2.11

Give recorded protein stability index. Q10A 2.79

Give recorded protein stability index. Q10P 2.83

Give recorded protein stability index. Q10C 1.28

Give recorded protein stability index. A12P 2.18

Give recorded protein stability index. C18W 2.17

Give recorded protein stability index. K24H 3.08

Give recorded protein stability index. Q20L 2.38

Give recorded protein stability index. M17D 2.02

Give recorded protein stability index. E19K 2.63

Give recorded protein stability index. S14R 2.05

Give recorded protein stability index. E2W 2.57

Give recorded protein stability index. T8H 2.03

Give recorded protein stability index. K16G 1.81

Give recorded protein stability index. M1P 4.09

Give recorded protein stability index. A12D 1.82

Give recorded protein stability index. K16S 2.34

Give recorded protein stability index. L4Q 2.58

Give recorded protein stability index. P11D 1.6

Give recorded protein stability index. T8P 1.97

Give recorded protein stability index. Q20S 1.75

Give recorded protein stability index. T8W 2.55

Give recorded protein stability index. S14E 2.3

Give recorded protein stability index. S14F 2.49

Give recorded protein stability index. A21V 2.5

Give recorded protein stability index. T6H 2.2

Give recorded protein stability index. E19C 2.09

Give recorded protein stability index. K24L 3.19

Give recorded protein stability index. Q20Y 2.58

Give recorded protein stability index. M17V 2.98

Give recorded protein stability index. E19D 2.27

Give recorded protein stability index. A21M 2.21

Give recorded protein stability index. Y9N 2.16

Give recorded protein stability index. K16Y 3.02

Give recorded protein stability index. E2T 2.28

Give recorded protein stability index. A12L 2.57

Give recorded protein stability index. G23E 2.22

Give recorded protein stability index. L4A 2.55

Give recorded protein stability index. T6P 4.1

Give recorded protein stability index. E2V 2.13

Give recorded protein stability index. T15G 2.53

Give recorded protein stability index. M1I 2.03

Give recorded protein stability index. T15F 1.79

Give recorded protein stability index. T15M 2.87

Give recorded protein stability index. T15S 2.41

Give recorded protein stability index. T6W 1.99

Give recorded protein stability index. S14D 1.68

Give recorded protein stability index. L3E 2.56

Give recorded protein stability index. R5P 3.83

Give recorded protein stability index. Q20F 2.08

Give recorded protein stability index. I7E 2.89

Give recorded protein stability index. P11A 2.12

Give recorded protein stability index. L3Q 2.08

Give recorded protein stability index. M1C 1.51

Give recorded protein stability index. A12V 2.4

Give recorded protein stability index. Y9C 2.38

Give recorded protein stability index. L22C 2.54

Give recorded protein stability index. L4N 4.01

Give recorded protein stability index. L4Y 1.98

Give recorded protein stability index. A13P 1.74

Give recorded protein stability index. Q20V 1.6

Give recorded protein stability index. L4W 1.7

Give recorded protein stability index. C18M 2.67

Give recorded protein stability index. Q20A 2.63

Give recorded protein stability index. R5A 1.92

Give recorded protein stability index. L22S 1.52

Give recorded protein stability index. T8V 2.49

Give recorded protein stability index. I7C 2.1

Give recorded protein stability index. L4M 1.61

Give recorded protein stability index. A13D 2.51

Give recorded protein stability index. L4V 2.77

Give recorded protein stability index. A12K 2.03

Give recorded protein stability index. P11T 2.72
